Each recorded value in this set is attributed to the supplement of paper PMC12764529.

Assign folding stability dG unfold to each entry below.
# ASSAY_EXPLANATION: folding stability dG unfold from trypsin proteolysis; higher = more stable
// return numeric value only (unit: kcal/mol, not printed)

Looking up SAGGKKKTIVLEVKVENLEEILKLAKEAAKAGDKVTVKVKLPDGEVYTVTVDVKTGKIVKVEKKKLPKSAGG [r13_873_TrROS_Hall] , I see its folding stability dG unfold listed as 1.98

# sequence SMKPVKITEVTEDTITVTVTVYDKETNRLVKVTAEITFDKETKKLTIKVKVEVLPPLSEEQRKALEEALKSA [r9_1038_TrROS_Hall] ; its folding stability dG unfold = 1.98

folding stability dG unfold recorded for this sequence, SAGGMPPENIKEITEVERNPDGMKEITIEMEDPELAKQGNPEQVDQMAEWLQDEFPDRGIPVTIEPGPSAGG [r13_243_TrROS] , is 0.514
